# MEASURED ON: D(2) dopamine receptor (Homo sapiens) (UniProt P14416)
# Sequence (P14416 whole entry, looked up): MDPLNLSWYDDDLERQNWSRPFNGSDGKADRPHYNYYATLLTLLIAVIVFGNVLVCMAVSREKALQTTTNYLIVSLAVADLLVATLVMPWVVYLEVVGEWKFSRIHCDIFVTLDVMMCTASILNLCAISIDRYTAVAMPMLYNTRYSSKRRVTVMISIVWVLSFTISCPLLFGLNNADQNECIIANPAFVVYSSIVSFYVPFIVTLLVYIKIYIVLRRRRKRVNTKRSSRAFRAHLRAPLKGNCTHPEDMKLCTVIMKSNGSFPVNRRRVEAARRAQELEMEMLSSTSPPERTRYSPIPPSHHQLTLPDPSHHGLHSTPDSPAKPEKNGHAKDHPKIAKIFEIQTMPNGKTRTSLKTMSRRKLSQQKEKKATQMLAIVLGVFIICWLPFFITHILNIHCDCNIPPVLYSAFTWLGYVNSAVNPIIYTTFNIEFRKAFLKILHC
# ASSAY PROTOCOL: Dopamine D2 receptor (DRD2) small molecule antagonists, cell-based qHTS assay (AID 1963595)
# TEST CONDITIONS: HEK293-DRD2 cAMP HTRF antagonist mode; series mostly up to 92.4 µM
Results filed as inconclusive are left out. Active and inactive are the calls of the source. Calls follow the shape of the dose curve; as a rule, active = well fitted inhibition curve with a large enough effect in the signal ratio in the repeat runs, with a control signal flat; inconclusive = weak or mixed curves, or effect the other way; inactive = flat fitted curve, though single readings scatter; the % refers to the signal ratio.
Possible outcomes: 1.0 = active, 0.0 = inactive

- COMPOUND: "CC(=O)[C@H]1CC[C@H]2[C@@H]3CC[C@H]4C[C@](C)(O)CC[C@]4(C)[C@H]3CC[C@]12C"
  QUALITATIVE LABEL: 0.0
- COMPOUND: "O=c1n(Cl)c(=O)n(Cl)c(=O)n1Cl"
  QUALITATIVE LABEL: 0.0
- COMPOUND: "FC(Cl)(Cl)Cl"
  QUALITATIVE LABEL: 0.0
- COMPOUND: "CCOP(=S)(OCC)OP(=S)(OCC)OCC"
  QUALITATIVE LABEL: 0.0
- COMPOUND: "CN(C)N=O"
  QUALITATIVE LABEL: 0.0
- COMPOUND: "CC(C)(c1ccccc1)c1ccc(O)c(C(C)(C)c2ccccc2)c1"
  QUALITATIVE LABEL: 1.0
- COMPOUND: "CC1OC(C)OC(C)O1 (stereo not drawn)"
  QUALITATIVE LABEL: 0.0
- COMPOUND: "CCC(CC)Nc1c([N+](=O)[O-])cc(C)c(C)c1[N+](=O)[O-]"
  QUALITATIVE LABEL: 0.0
- COMPOUND: "O=Cc1cccc(Oc2ccccc2)c1"
  QUALITATIVE LABEL: 0.0
- COMPOUND: "O=C(Cl)CCl"
  QUALITATIVE LABEL: 0.0
- COMPOUND: "CN(C)P(=O)(N(C)C)N(C)C"
  QUALITATIVE LABEL: 0.0
- COMPOUND: "CCOc1cc(C=O)ccc1O"
  QUALITATIVE LABEL: 0.0
- COMPOUND: "CCN(CC)C(=O)SCc1ccc(Cl)cc1"
  QUALITATIVE LABEL: 0.0
- COMPOUND: "S=C1NCCN1"
  QUALITATIVE LABEL: 0.0
- COMPOUND: "COC[C@@H](NC(C)=O)C(=O)NCc1ccccc1"
  QUALITATIVE LABEL: 0.0
- COMPOUND: "O=C1CCCO1"
  QUALITATIVE LABEL: 0.0
- COMPOUND: "CC(=O)O"
  QUALITATIVE LABEL: 0.0
- COMPOUND: "O=[N+]([O-])O[C@H]1CO[C@H]2[C@@H]1OC[C@H]2O[N+](=O)[O-]"
  QUALITATIVE LABEL: 0.0
- COMPOUND: "OCC(Cl)CCl (stereo not drawn)"
  QUALITATIVE LABEL: 0.0
- COMPOUND: "BrCC(Br)c1ccccc1 (stereo not drawn)"
  QUALITATIVE LABEL: 0.0
- COMPOUND: "Nc1ncn[nH]1"
  QUALITATIVE LABEL: 0.0
- COMPOUND: "CC(C)NC(C)C"
  QUALITATIVE LABEL: 0.0
- COMPOUND: "O=C(O)c1nc(Cl)ccc1Cl"
  QUALITATIVE LABEL: 0.0
- COMPOUND: "Cc1ccc([N+](=O)[O-])cc1C"
  QUALITATIVE LABEL: 0.0
- COMPOUND: "CCCn1cc[n+](C)c1"
  QUALITATIVE LABEL: 0.0
- COMPOUND: "Nc1ccccc1C(=O)O"
  QUALITATIVE LABEL: 0.0
- COMPOUND: "N#CCc1ccccc1"
  QUALITATIVE LABEL: 0.0
- COMPOUND: "CCOP(=S)(OCC)Oc1ccc([N+](=O)[O-])cc1"
  QUALITATIVE LABEL: 0.0
- COMPOUND: "CCCCCCCCCCn1cc[n+](C)c1"
  QUALITATIVE LABEL: 0.0
- COMPOUND: "N#CCBr"
  QUALITATIVE LABEL: 0.0
- COMPOUND: "O=C(O)C(F)(F)C(F)(F)C(F)(F)C(F)(F)C(F)(F)C(F)(F)C(F)(F)C(F)(F)C(F)(F)C(F)(F)F"
  QUALITATIVE LABEL: 0.0
- COMPOUND: "NC(=S)c1c(Cl)cccc1Cl"
  QUALITATIVE LABEL: 0.0
- COMPOUND: "Nc1ccc(-c2ccccc2)cc1"
  QUALITATIVE LABEL: 0.0
- COMPOUND: "Clc1nc(Cl)nc(Nc2ccccc2Cl)n1"
  QUALITATIVE LABEL: 0.0
- COMPOUND: "Oc1ccccc1Cl"
  QUALITATIVE LABEL: 0.0
- COMPOUND: "CNC(=O)O/N=C/C(C)(C)SC"
  QUALITATIVE LABEL: 0.0
- COMPOUND: "Oc1ccc(C(c2ccc(O)cc2)(C(F)(F)F)C(F)(F)F)cc1"
  QUALITATIVE LABEL: 0.0
- COMPOUND: "ClC1=C(Cl)[C@]2(Cl)[C@@H]3[C@@H](Cl)[C@@H](Cl)C[C@@H]3[C@@]1(Cl)C2(Cl)Cl"
  QUALITATIVE LABEL: 0.0
- COMPOUND: "Cc1ccc(O)c(C)c1"
  QUALITATIVE LABEL: 0.0
- COMPOUND: "O=C(O)CCCc1ccc(N(CCCl)CCCl)cc1"
  QUALITATIVE LABEL: 0.0
- COMPOUND: "O=Cc1ccc(Cl)cc1Cl"
  QUALITATIVE LABEL: 0.0
- COMPOUND: "CCCCNC(=O)n1c(NC(=O)OC)nc2ccccc21"
  QUALITATIVE LABEL: 0.0
- COMPOUND: "CC(=NC#N)N(C)Cc1ccc(Cl)nc1"
  QUALITATIVE LABEL: 0.0
- COMPOUND: "CN=C=S"
  QUALITATIVE LABEL: 0.0
- COMPOUND: "C=CC(=O)OCCO"
  QUALITATIVE LABEL: 0.0
- COMPOUND: "ClCCN1CCCC1"
  QUALITATIVE LABEL: 0.0
- COMPOUND: "CCc1cnc(C2=NC(C)(C(C)C)C(=O)N2)c(C(=O)O)c1 (stereo not drawn)"
  QUALITATIVE LABEL: 0.0
- COMPOUND: "Cc1ccc(N)cc1"
  QUALITATIVE LABEL: 0.0
- COMPOUND: "CNC(=O)Oc1cccc2c1OC(C)(C)O2"
  QUALITATIVE LABEL: 0.0
- COMPOUND: "CCc1ccccc1C"
  QUALITATIVE LABEL: 0.0
- COMPOUND: "CCCC[n+]1ccccc1"
  QUALITATIVE LABEL: 0.0
- COMPOUND: "Clc1cccc(Cl)c1Cl"
  QUALITATIVE LABEL: 0.0
- COMPOUND: "CCOc1ccc(N)cc1"
  QUALITATIVE LABEL: 0.0
- COMPOUND: "CNC(=O)Oc1cccc2c1OC(C)(C)C2"
  QUALITATIVE LABEL: 0.0
- COMPOUND: "ClCCOCCCl"
  QUALITATIVE LABEL: 0.0
- COMPOUND: "CN(C)C(=O)Nc1cccc(C(F)(F)F)c1"
  QUALITATIVE LABEL: 0.0
- COMPOUND: "Nc1c(Br)cc([N+](=O)[O-])cc1[N+](=O)[O-]"
  QUALITATIVE LABEL: 0.0
- COMPOUND: "C[N+](C)(C)C"
  QUALITATIVE LABEL: 0.0
- COMPOUND: "CCNc1nc(Cl)nc(NC(C)C)n1"
  QUALITATIVE LABEL: 0.0
- COMPOUND: "CSc1nc(NC(C)C)nc(NC(C)C)n1"
  QUALITATIVE LABEL: 0.0
- COMPOUND: "COC(=O)NC(=S)Nc1ccccc1NC(=S)NC(=O)OC"
  QUALITATIVE LABEL: 0.0
- COMPOUND: "NN=C(N)N"
  QUALITATIVE LABEL: 0.0
- COMPOUND: "NC(=O)O"
  QUALITATIVE LABEL: 0.0

Sourced from PubChem BioAssay (Tox21)
